Give HEK-Blue activity, No BP, DF-1,000,000 for every item shown.
# TESTED_SYSTEM: T1, IL-18 receptors on HEK-Blue IL-18 reporter cells (UniProt Q13478 19-541; O95256 20-599, limits assumed); also: unit not given here
# T1 sequence (looked up) 1: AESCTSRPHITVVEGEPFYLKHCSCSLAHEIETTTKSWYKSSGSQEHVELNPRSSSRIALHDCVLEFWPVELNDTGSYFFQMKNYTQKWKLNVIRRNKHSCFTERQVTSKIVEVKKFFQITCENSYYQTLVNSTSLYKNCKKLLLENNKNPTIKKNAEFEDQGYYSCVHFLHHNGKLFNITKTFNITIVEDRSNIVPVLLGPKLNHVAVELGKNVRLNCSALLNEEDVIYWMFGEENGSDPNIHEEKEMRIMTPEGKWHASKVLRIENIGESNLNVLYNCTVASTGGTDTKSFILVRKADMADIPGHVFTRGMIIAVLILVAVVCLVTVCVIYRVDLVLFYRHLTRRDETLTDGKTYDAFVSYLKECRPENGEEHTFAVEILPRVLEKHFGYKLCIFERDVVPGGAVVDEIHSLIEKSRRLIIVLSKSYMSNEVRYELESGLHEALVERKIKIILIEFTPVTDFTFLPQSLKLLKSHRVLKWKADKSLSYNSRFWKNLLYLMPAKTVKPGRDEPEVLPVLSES
# T1 sequence (looked up) 2: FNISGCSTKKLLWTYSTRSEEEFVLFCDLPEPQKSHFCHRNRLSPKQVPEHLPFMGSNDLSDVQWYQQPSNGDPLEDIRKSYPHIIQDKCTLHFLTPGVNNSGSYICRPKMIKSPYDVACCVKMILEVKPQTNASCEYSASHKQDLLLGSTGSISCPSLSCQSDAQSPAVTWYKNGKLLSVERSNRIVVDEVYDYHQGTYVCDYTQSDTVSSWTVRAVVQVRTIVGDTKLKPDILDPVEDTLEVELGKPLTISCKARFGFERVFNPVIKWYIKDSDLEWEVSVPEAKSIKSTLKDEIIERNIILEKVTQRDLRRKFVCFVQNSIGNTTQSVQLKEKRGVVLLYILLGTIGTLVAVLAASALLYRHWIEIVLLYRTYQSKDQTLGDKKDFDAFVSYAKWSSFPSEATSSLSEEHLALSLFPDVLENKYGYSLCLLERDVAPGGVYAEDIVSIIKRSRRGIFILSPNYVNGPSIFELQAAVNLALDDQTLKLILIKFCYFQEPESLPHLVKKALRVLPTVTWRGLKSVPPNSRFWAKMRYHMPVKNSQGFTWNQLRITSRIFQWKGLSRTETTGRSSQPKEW
# ASSAY: cell-based or functional assay

Look up and report measured HEK-Blue activity, No BP, DF-1,000,000 for this entry: yeast display IL-18 variant L5W, I22M, K53N, S55Y, Q56H (ligand) YFGKWESKLSVIRNLNDQVLFMDQGNRPLFEDMTDSDMRDNAPRTIFIISMYNDYHPRGMAVTISVKSEKISTLSSENKIISFKEMNPPDNIKDTKSDIIFFQRSVPGHDNKMQFESSSYEGYFLASEKERDLFKLILKKEDELGDRSIMFTVQNED 0.13

For the binder yeast display IL-18 variant K53Y, S55Y (ligand) YFGKLESKLSVIRNLNDQVLFIDQGNRPLFEDMTDSDMRDNAPRTIFIISMYYDYQPRGMAVTISVKSEKISTLSSENKIISFKEMNPPDNIKDTKSDIIFFQRSVPGHDNKMQFESSSYEGYFLASEKERDLFKLILKKEDELGDRSIMFTVQNED , report HEK-Blue activity, No BP, DF-1,000,000. 0.12

Fill in reported HEK-Blue activity, No BP, DF-1,000,000 for this entry: yeast display IL-18 variant T34I, S36V, D40I, N41M, K53G, S55Y (ligand) YFGKLESKLSVIRNLNDQVLFIDQGNRPLFEDMIDVDMRIMAPRTIFIISMYGDYQPRGMAVTISVKSEKISTLSSENKIISFKEMNPPDNIKDTKSDIIFFQRSVPGHDNKMQFESSSYEGYFLASEKERDLFKLILKKEDELGDRSIMFTVQNED 0.14

Give the measured HEK-Blue activity, No BP, DF-1,000,000 for yeast display IL-18 variant K53Y, S55G (ligand) YFGKLESKLSVIRNLNDQVLFIDQGNRPLFEDMTDSDMRDNAPRTIFIISMYYDGQPRGMAVTISVKSEKISTLSSENKIISFKEMNPPDNIKDTKSDIIFFQRSVPGHDNKMQFESSSYEGYFLASEKERDLFKLILKKEDELGDRSIMFTVQNED 0.12

For the binder yeast display IL-18 variant K53S, S55F, R104K, H109Y (ligand) YFGKLESKLSVIRNLNDQVLFIDQGNRPLFEDMTDSDMRDNAPRTIFIISMYSDFQPRGMAVTISVKSEKISTLSSENKIISFKEMNPPDNIKDTKSDIIFFQKSVPGYDNKMQFESSSYEGYFLASEKERDLFKLILKKEDELGDRSIMFTVQNED , give its measured HEK-Blue activity, No BP, DF-1,000,000 value. 0.09

Please look at this binder and report its HEK-Blue activity, No BP, DF-1,000,000: yeast display IL-18 variant K53S, S55K (ligand) YFGKLESKLSVIRNLNDQVLFIDQGNRPLFEDMTDSDMRDNAPRTIFIISMYSDKQPRGMAVTISVKSEKISTLSSENKIISFKEMNPPDNIKDTKSDIIFFQRSVPGHDNKMQFESSSYEGYFLASEKERDLFKLILKKEDELGDRSIMFTVQNED 0.5

Respond only with HEK-Blue activity, No BP, DF-1,000,000 recorded for yeast display IL-18 variant T34I, S36T, D40A, N41M, K53T, S55Y (ligand) YFGKLESKLSVIRNLNDQVLFIDQGNRPLFEDMIDTDMRAMAPRTIFIISMYTDYQPRGMAVTISVKSEKISTLSSENKIISFKEMNPPDNIKDTKSDIIFFQRSVPGHDNKMQFESSSYEGYFLASEKERDLFKLILKKEDELGDRSIMFTVQNED 0.14

Please look at this binder and report its HEK-Blue activity, No BP, DF-1,000,000: yeast display IL-18 variant K53H, S55V (ligand) YFGKLESKLSVIRNLNDQVLFIDQGNRPLFEDMTDSDMRDNAPRTIFIISMYHDVQPRGMAVTISVKSEKISTLSSENKIISFKEMNPPDNIKDTKSDIIFFQRSVPGHDNKMQFESSSYEGYFLASEKERDLFKLILKKEDELGDRSIMFTVQNED 0.33

Specify reported HEK-Blue activity, No BP, DF-1,000,000 for the binder shown: yeast display IL-18 variant K53W, S55A (ligand) YFGKLESKLSVIRNLNDQVLFIDQGNRPLFEDMTDSDMRDNAPRTIFIISMYWDAQPRGMAVTISVKSEKISTLSSENKIISFKEMNPPDNIKDTKSDIIFFQRSVPGHDNKMQFESSSYEGYFLASEKERDLFKLILKKEDELGDRSIMFTVQNED 0.11

Quick one: give measured HEK-Blue activity, No BP, DF-1,000,000 for yeast display IL-18 variant K53D, S55N (ligand) YFGKLESKLSVIRNLNDQVLFIDQGNRPLFEDMTDSDMRDNAPRTIFIISMYDDNQPRGMAVTISVKSEKISTLSSENKIISFKEMNPPDNIKDTKSDIIFFQRSVPGHDNKMQFESSSYEGYFLASEKERDLFKLILKKEDELGDRSIMFTVQNED 0.09
